Test system: up to 32 different microorganisms
Assay: in vitro antibacterial activity (MIC), agar dilution on Brain Heart Infusion (BHI) agar with Steers replicator
Format: cell-based
Conditions: Streptococcus Pneumonia ATCC6303 (code XX); unit assumed
Quantity: MIC

A selection of reference data follows.
compound_structure=CC[C@H]1OC(=O)[C@H](C)C(=O)[C@H](C)[C@@H](O[C@@H]2O[C@H](C)C[C@H](N(C)C)[C@H]2O)[C@@](C)(OCC=Cc2cnc3ccccc3c2)C[C@@H](C)C(=O)[C@H](C)[C@@H](O)[C@]1(C)O quantity=MIC result="0.03 mg/L"
compound_structure=CC[C@H]1OC(=O)[C@H](C)C(=O)[C@H](C)[C@@H](O[C@@H]2O[C@H](C)C[C@H](N(C)C)[C@H]2O)[C@@](C)(OCCCc2ccccc2)C[C@@H](C)C(=O)[C@H](C)[C@H]2OC(=O)O[C@@]21C quantity=MIC result="0.125 mg/L"
compound_structure=CC[C@H]1OC(=O)[C@H](C)C(=O)[C@H](C)[C@@H](O[C@@H]2O[C@H](C)C[C@H](N(C)C)[C@H]2O)[C@@](C)(OCC=Cc2ccc(Cl)cc2)C[C@@H](C)C(=O)[C@H](C)[C@H]2OC(=O)O[C@@]21C quantity=MIC result="0.125 mg/L"

For the compound shown here, CC[C@H]1OC(=O)[C@H](C)C(=O)[C@H](C)[C@@H](O[C@@H]2O[C@H](C)C[C@H](N(C)C)[C@H]2O)[C@@](C)(OCCCc2ccccc2)C[C@@H](C)C(=O)[C@H](C)[C@@H](O)[C@]1(C)O , give the reported MIC.
1 mg/L

---

Collected MIC values appear next to each entry.
Test system: up to 32 different microorganisms
Assay: in vitro antibacterial activity (MIC), agar dilution on Brain Heart Infusion (BHI) agar with Steers replicator
Assay type: cell-based
Settings: Streptococcus bovis A-5169 (code JJ); unit assumed
The answer is to be given in µg/mL; state only the numeric part.

A selection of reference data follows.
molecule=CC[C@H]1OC(=O)[C@H](C)C(=O)[C@H](C)[C@@H](O[C@@H]2O[C@H](C)C[C@H](N(C)C)[C@H]2O)[C@@](C)(OCC=Cc2ccc(Cl)cc2)C[C@@H](C)C(=O)[C@H](C)[C@H]2OC(=O)O[C@@]21C target="up to 32 different microorganisms" quantity=MIC quantitative_result=0.05
molecule=CC[C@H]1OC(=O)[C@H](C)C(=O)[C@H](C)[C@@H](O[C@@H]2O[C@H](C)C[C@H](N(C)C)[C@H]2O)[C@@](C)(OCc2ccc3ccccc3c2)C[C@@H](C)C(=O)[C@H](C)[C@H]2NC(=O)O[C@@]21C target="up to 32 different microorganisms" quantity=MIC quantitative_result=0.05
molecule=CC[C@H]1OC(=O)[C@H](C)C(=O)[C@H](C)[C@@H](O[C@@H]2O[C@H](C)C[C@H](N(C)C)[C@H]2O)[C@@](C)(OCC=Cc2ccc(F)cc2)C[C@@H](C)C(=O)[C@H](C)[C@@H](O)[C@]1(C)O target="up to 32 different microorganisms" quantity=MIC quantitative_result=0.2
molecule="CCC1OC(=O)C(C)C(=O)C(C)C(OC2OC(C)CC(N(C)C)C2O)C(C)(OCC=Cc2ccc3c(c2)OCCO3)CC(C)C(=O)C(C)C2NC(=O)OC12C (stereo not drawn)" target="up to 32 different microorganisms" quantity=MIC quantitative_result=0.01

For the molecule shown here, CCC1OC(=O)C(C)C(=O)C(C)C(OC2OC(C)CC(N(C)C)C2O)C(C)(OCC=Cc2cccc([N+](=O)[O-])c2)CC(C)C(=O)C(C)C2NC(=O)OC12C (stereo not drawn) , give the reported MIC.
0.01

For the molecule shown here, CC[C@H]1OC(=O)[C@H](C)C(=O)[C@H](C)[C@@H](O[C@@H]2O[C@H](C)C[C@H](N(C)C)[C@H]2O)[C@@](C)(OCC=Cc2ccc(OC)cc2)C[C@@H](C)C(=O)[C@H](C)[C@@H](O)[C@]1(C)O , give the reported MIC.
0.2

For the molecule shown here, CC[C@H]1OC(=O)[C@H](C)C(=O)[C@H](C)[C@@H](O[C@@H]2O[C@H](C)C[C@H](N(C)C)[C@H]2O)[C@@](C)(OCC=Cc2ccccc2)C[C@@H](C)C(=O)[C@H](C)[C@H]2NC(=O)O[C@@]21C , give the reported MIC.
0.01

// provenance: patent USRE39591E1
